# Test system: COR-L 105
# ASSAY SUMMARY: relative viability (nuclei count vs DMSO), 5 days (fraction); higher = more cells survive
# SETTINGS: first compound 2.53 µM
MEASURE NAME: relative viability
Please respond with just the number, no unit label.

For orientation, consider the following solved cases.
C=C1C(=O)O[C@@H](CCCCCCCC)[C@@H]1C(=O)O [C-75] + Cc1nc(NC(=O)N2CCC[C@H]2C(N)=O)sc1-c1ccnc(C(C)(C)C(F)(F)F)c1 [Alpelisib] (partner 2 µM)    0.895
Oc1nc(-c2ccc(C(F)(F)F)cc2)nc2c1CSCC2 [XAV939] + CC(=O)Nc1cccc(-n2c(=O)n(C3CC3)c(=O)c3c(Nc4ccc(I)cc4F)n(C)c(=O)c(C)c32)c1 [Trametinib] (partner 0.02 µM)    0.414

Consider the additional molecule presented here.
Given Oc1nc(-c2ccc(C(F)(F)F)cc2)nc2c1CSCC2 [XAV939] + Cc1cc(Nc2cc(N3CCN(C)CC3)nc(Sc3ccc(NC(=O)C4CC4)cc3)n2)n[nH]1 [Tozasertib] (partner 0.1 µM) , respond with its relative viability.
0.343

src = the supplement of paper PMC10307832
